target: HER2 expressed on the surface of cells (human, UniProt P04626 23-1255); assay: cell-based or functional assay
Each entry below carries its recorded increase in efficacy with respect to the WT, NCI-N87 cells.
readout.type: increase in efficacy with respect to the WT, NCI-N87 cells (fold)

# binder, result.units, data.value
data = [
    ("Variant 14018 (antibody, name in Kabat numbering, V domains shown, also called v14018) VH: EVQLVESGGGLVQPGGSLRLSCAASGFTFTDYTMDWVRQAPGKGLEWVGDVNPNSGGSIYNQRFKGRFTFSVDRSWNTLYLQMNSLRAEDTAVYYCARNLGPSFYFDYWGQGTLVTVSS VL: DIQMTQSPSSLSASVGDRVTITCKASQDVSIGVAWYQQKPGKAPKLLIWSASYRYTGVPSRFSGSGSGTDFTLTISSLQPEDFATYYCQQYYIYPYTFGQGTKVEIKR", "fold", 1.9),
    ("Variant 14023 (antibody, name in Kabat numbering, V domains shown, also called v14023) VH: EVQLVESGGGLVQPGGSLRLSCAASGFTFQDYTMDWVRQAPGKGLEWVGDVNPNSGGSIYNQRFKGRFTFSVDRSWNTLYLQMNSLRAEDTAVYYCARNLGPWFYFDYWGQGTLVTVSS VL: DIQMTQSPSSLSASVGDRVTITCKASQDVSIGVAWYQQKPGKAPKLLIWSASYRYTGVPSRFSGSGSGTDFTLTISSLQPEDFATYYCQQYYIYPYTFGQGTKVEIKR", "fold", 3.1),
    ("Variant 14022 (antibody, name in Kabat numbering, V domains shown, also called v14022) VH: EVQLVESGGGLVQPGGSLRLSCAASGFTFQDYTMDWVRQAPGKGLEWVGDVNPNSGGSIYNQRFKGRFTFSVDRSKNTLYLQMNSLRAEDTAVYYCARNLGPWFYFDYWGQGTLVTVSS VL: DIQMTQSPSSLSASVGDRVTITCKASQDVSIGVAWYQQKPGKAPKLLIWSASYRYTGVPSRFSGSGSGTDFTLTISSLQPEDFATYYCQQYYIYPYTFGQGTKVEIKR", "fold", 3.7),
]
